- Test system: Plasmodium berghei
- Assay Protocol: Screen against P. berghei liver stage (PbLuc), transformed with Luciferase, at 2uM
- Assay type: functional, HepG2
- Condition Set: tested at 2 uM
The campaign covered roughly 68,000 compounds. About 2,700 (4%) showed an effect of 50% or more. For the sample, strong results were picked, then their nearest neighbours and some compounds at random.
Measured Property: INHIBITION (%)
# value in %; strip the unit string

| Compound | INHIBITION / % |
| --- | --- |
| O=C(Cc1ccccc1)NCCNCc1cccc(O)c1 | 31.57 |
| CO[C@H]1CCN(C(=O)c2ccsc2)[C@@H]2CN(CC3CC3)C[C@H]12 | -1.45 |

// INHIBITION lookup, key: NC(=O)COc1cccc(CN2CCCC2c2ccc[nH]2)c1 (stereo not drawn)
-4.58

// INHIBITION lookup, key: COc1ccc(OCCN(C)CCCn2cnc3c(N)ncnc32)cc1
36.29

---

- System: Plasmodium berghei
- Assay Protocol: Screen against P. berghei liver stage (PbLuc), transformed with Luciferase, at 2uM
- Assay type: functional, HepG2
- Condition Set: tested at 2 uM
Screen size: about 68,000 compounds; about 2,700 (4%) showed an effect of 50% or more. The sample holds strong results, similar compounds and a random draw of the others, so the mix is not that of the screen.
Measured Property: INHIBITION (%)
# value in %; strip the unit string

| Compound | Readout Unit | Value Observed |
| --- | --- | --- |
| CC1CCN(C(=O)[C@@H]2CC[C@@H]3[C@@H](CCN3c3ncc(F)cn3)O2)CC1 | % | 3.63 |
| Cc1cc2ncc(C(C)NCc3cccnc3)c(C)n2n1 (stereo not given) | % | 19.6 |

Okay, now this compound:
// INHIBITION lookup, key: CC(C)c1nc(CN(C)C2CCCN(c3cccnn3)C2)no1 (stereo not given)
-68.26

---

- Tested on: Plasmodium berghei
- Assay Protocol: Screen against P. berghei liver stage (PbLuc), transformed with Luciferase, at 2uM
- Format: functional, HepG2
- Condition Set: tested at 2 uM
The whole screen tested about 68,000 compounds, of which about 2,700 (4%) showed an effect of 50% or more. The entries come from a sample that favours strong results as a whole.
Entries and their INHIBITION values follow.
Answer by giving the amount and then stating its unit.

| Compound | INHIBITION |
| --- | --- |
| Cn1cccc(NC(=O)N2CCC(COCc3ccccc3)C2)c1=O (stereo unspecified) | -5.79% |
| COC(=O)c1cccc2nc([C@H]3CCN(Cc4ccccc4F)C3)oc12 | 52.36% |
| COC(=O)c1cccc2nc([C@H]3CCN(Cc4ccccc4C)C3)oc12 | 33.14% |
| O=C1CC(NS(=O)(=O)N2CCOCC2)CN1Cc1ccc(F)cc1 (stereo unspecified) | 57.75% |
| O=C(Nc1cccnc1)c1ccc(-n2cncn2)nn1 | -7.69% |
| COc1ccc(C(=O)N2CCOCC2c2[nH]ncc2C)cc1F (stereo unspecified) | -53.71% |

// INHIBITION lookup, key: NC(=O)N1CC2(CCNCC2)c2cc(Cl)ccc21
6.12%

// INHIBITION lookup, key: Cc1cccnc1NC(=O)c1ccc(-n2cncn2)nn1
9.92%

---

- System: Plasmodium berghei
- Assay Protocol: Screen against P. berghei liver stage (PbLuc), transformed with Luciferase, at 2uM
- Assay type: functional, HepG2
- Condition Set: tested at 2 uM
Out of some 68,000 compounds screened, about 2,700 (4%) showed an effect of 50% or more. Many of the other results were omitted from the sample, so strong results are more common in it than they were.
Measured Property: INHIBITION (%)
# value in %; strip the unit string

Some solved entries appear below for comparison.
| Molecule | Readout Unit | INHIBITION |
| --- | --- | --- |
| Cn1ccc(CS(=O)(=O)Cc2ccccc2)cc1=O | % | 36.53 |
| CCOCC1c2c(ncn2C)CCN1C(=O)c1cscn1 (stereo unspecified) | % | 16.78 |
| CCCN1CCC(c2nc3ccc(NCc4ccccc4)cn3n2)CC1 | % | 54.65 |

// INHIBITION lookup, key: CN1CCC(c2nc3ccc(-c4cccc(F)c4)cn3n2)CC1
20.41

// INHIBITION lookup, key: CC(=O)N1CCN(Cc2nccs2)CC2(CC(=O)N(C)C2)C1 (stereo unspecified)
26.01

// INHIBITION lookup, key: NC(=O)NCC1CCCCN1Cc1nc(-c2ccco2)no1 (stereo unspecified)
-3.06

---

- Test system: Plasmodium berghei
- Assay Protocol: Screen against P. berghei liver stage (PbLuc), transformed with Luciferase, at 2uM
- Assay type: functional, HepG2
- Condition Set: tested at 2 uM
Hit rate of the full screen: of about 68,000 compounds, about 2,700 (4%) showed an effect of 50% or more. The entries come from a sample that favours strong results as a whole.
Entries and their INHIBITION values follow.
# value in %; strip the unit string

| Compound | Readout Unit | Value Observed |
| --- | --- | --- |
| CC(C)c1n[nH]c(C(=O)Nc2ccncc2)c1Br | % | 29.37 |
| Cc1nnc([C@]23COC[C@H]2CN(Cc2cccs2)C3)o1 | % | 27.73 |
| CCOc1ncccc1C(=O)N1CCCC(c2nccn2CCOC)C1 (centres undefined) | % | -32.59 |
| COCc1csc(NC(=O)NCc2ccccn2)n1 | % | -4.91 |
| Cc1ncsc1CN1Cc2cnn(C)c2C(COCC2CC2)C1 (centres undefined) | % | 50.17 |
| Cn1ncc2c1C(COCC1CC1)CN(S(C)(=O)=O)C2 (centres undefined) | % | 51.72 |

// INHIBITION lookup, key: CC(C)CCN(C)Cn1ncc2cn(-c3ccccc3)nc2c1=O
19.45

// INHIBITION lookup, key: Cc1ccc(C(=O)NCC(O)CN2CCCC2=O)c(C)c1 (centres undefined)
-40.9

// INHIBITION lookup, key: CC(C#N)CN(C)Cc1cc(Cl)cc2cccnc12 (centres undefined)
28.91

// INHIBITION lookup, key: CCOCCn1c(=O)[nH]c2cc(C(=O)N(C)Cc3cc(C)[nH]n3)ccc21
14.24

// INHIBITION lookup, key: Cn1ncc2c1C(COCC1CC1)CN(S(=O)(=O)C1CC1)C2 (centres undefined)
3.63

// INHIBITION lookup, key: CCOCC1CN(S(C)(=O)=O)Cc2cnn(C)c21 (centres undefined)
18.97

// INHIBITION lookup, key: Cc1cccc(NC(=O)c2[nH]nc(C(C)C)c2Br)n1
80.46

// INHIBITION lookup, key: Cc1ncsc1CN1Cc2cn(C)nc2C(COCC2CC2)C1 (centres undefined)
-64.59

// INHIBITION lookup, key: Cc1nc(C)c(S(=O)(=O)NC(=O)c2ccoc2)s1
44.86

// INHIBITION lookup, key: CCOCCn1c(=O)[nH]c2cc(C(=O)N(C)Cc3nc(C)cs3)ccc21
51.98

// INHIBITION lookup, key: O=C(NCCn1ccc(-c2ccncc2)n1)C1CC1
-19.3

// INHIBITION lookup, key: Cc1nnc([C@]23COC[C@H]2CN(Cc2nccs2)C3)o1
51.36

// INHIBITION lookup, key: O=C(NCCNc1ccccn1)Nc1cc(C(F)(F)F)c[nH]c1=O
-20.82

// INHIBITION lookup, key: COCC(=O)N1CCCCC1c1ccnc(Nc2ncc(C)s2)n1 (centres undefined)
60.74

---

- Tested on: Plasmodium berghei
- Assay Protocol: Screen against P. berghei liver stage (PbLuc), transformed with Luciferase, at 2uM
- Type: functional, HepG2
- Condition Set: tested at 2 uM
Out of some 68,000 compounds screened, about 2,700 (4%) showed an effect of 50% or more. The full list was thinned out, with strong results kept by preference.
Measured Property: INHIBITION (%)
# value in %; strip the unit string

Some solved entries appear below for comparison.
| Molecule | Measured Property | Readout Unit | Value Observed |
| --- | --- | --- | --- |
| Cc1cnc(N2CC[C@@H]3O[C@@H](COCc4ccccn4)CC[C@@H]32)nc1 | INHIBITION | % | -7.26 |
| CC(C)c1nnc2n1CCN(Cc1ccc3c(c1)OCO3)CC2 | INHIBITION | % | -21.23 |
| O=C1CC2(CCN(Cc3ccco3)C2)CN1c1ccc2c(c1)OCO2 (centres undefined) | INHIBITION | % | 14.06 |

// INHIBITION lookup, key: CO[C@@H]1CC[C@H]2[C@H]1OCCN2C(=O)c1ccc(C)nc1
29.89

// INHIBITION lookup, key: Cc1cc(NC(=O)C(C)Nc2cccc(COCc3ccco3)c2)on1 (centres undefined)
55.52
